Tested on: MvaT
Test: PBM 8-mer E-score (mean of HK and ME arrays) (E-score (dimensionless, -0.5 to 0.5)); higher = stronger relative binding preference
In all, about 33,000 sequences were measured (“E-score (dimensionless, -0.5 to 0.5)”: median about -0.058, highest 2% from about 0.35 on). The entries come from a sample that favours the highest values as a whole.
metric_name: PBM 8-mer E-score
Answer with a number only.

sequence	PBM 8-mer E-score
CTGAATAA	0.226
AGATTGAC	-0.15
CCTACCTC	-0.226

Lab note: ACGTTAAA gave PBM 8-mer E-score of 0.256

====

Test system: MvaT
Assay: PBM 8-mer E-score (mean of HK and ME arrays) (E-score (dimensionless, -0.5 to 0.5)); higher = stronger relative binding preference
Whole data set: some 33,000 sequences, median “E-score (dimensionless, -0.5 to 0.5)” near -0.058, cut for the highest 2% near 0.35. Shown is part of a subset that was picked to be rich in the highest values.
metric_name: PBM 8-mer E-score
Give the figure only, with no unit attached.

sequence	PBM 8-mer E-score
CAAGCCTG	-0.209
ATTAAACC	0.249

Entry GCATTATA , PBM 8-mer E-score reported as 0.309

AGTAAATG has a reported PBM 8-mer E-score of 0.175
